Data provenance is patent US20220119431A1.

# EXPERIMENT SUMMARY: Plasma, tumor and lung exposure in the efficacy-study mice after last administration
# Assay type: in vivo, BALB/c nude mice
# MEASUREMENT PARAMETERS: BALB/c nude, mouse; 15.0 mg/kg/day oral, plasma, day 14
ASSAY READOUT: half-life (min)

>>> df
                           substance_smiles  quantitative_readout
0  COc1cc(N2CCC(N3CCN(C)CC3)CC2)c(C)cc1Nc1ncc(Br)c(Nc2ccc3nccnc3c2P(C)(C)=O)n1                   600
